Entries and their melting point values follow.

GET /values?readout=melting point&item= O=C(O)c1c(-c2ccco2)oc2ccccc2c1=O
202 to 205 °C

Give the measured melting point of Cc1cccc(-c2oc3cc(Cl)ccc3c(=O)c2C(=O)O)c1 .
179 to 181 °C

Could you tell me which melting point is on file for COc1cccc2c(=O)c(C(=O)O)c(-c3ccco3)oc12 ?
195 to 197 °C

What does the data say about its melting point? Entry: Cc1cccc(-c2oc3cc(C)ccc3c(=O)c2C(=O)O)c1
152 to 155 °C

Form field: reported melting point of COc1ccc2oc(-c3ccco3)c(C(=O)O)c(=O)c2c1
205 to 207 °C

Which melting point reading was recorded for the compound Cc1cccc2c(=O)c(C(=O)O)c(-c3ccc(F)c(F)c3)oc12 ?
203 to 204 °C

Would you kindly share the measured melting point for O=C(O)c1c(-c2cccc(F)c2)oc2ccc(Br)cc2c1=O ?
222 to 223 °C
